- targetDesc: human TRPM8 receptor (Homo sapiens)
- Construct: expressed in transfected cells; host or cells: HEK293, stably transfected, tetracycline-inducible expression
- runDescription: Assay on TRPM8 modulators: Ca2+-sensitive dye (Fluo-4) fluorescence in HEK293-TRPM8 test cells
- Format: cell-based
- Design: concentration or dose not given beside the values
- appliedConditions: HEK293 cells recombinantly expressing human TRPM8
quantityMeasured: relative TRPM8 activation (%)

Here are 5 compounds together with their reported answers.
1. CNC(=O)C(C)S(=O)(=O)c1nc(-c2ccccc2)c(-c2ccccc2)o1 (stereo not shown) [Compound A-28] :: 40
2. CC(C)NC(=O)CSc1nc(-c2ccccc2)c(-c2ccccc2)o1 [Compound A-19] :: 75
3. CNC(=O)COc1nnc(-c2ccccc2)c(-c2ccccc2)n1 [Compound B-52] :: 3
4. CCCC(C)NC(=O)CSc1nc(-c2ccccc2)c(-c2ccccc2)o1 (stereo not shown) [Compound A-52] :: 1
5. CNC(=O)C(C)Sc1nnc(-c2ccc(O)cc2)c(-c2ccc(O)cc2)n1 (stereo not shown) [Compound B-45] :: 5

A: O=C(CCc1nc(-c2ccccc2)c(-c2ccccc2)o1)NC1CC1 [Compound A-18]
B: OCC(O)CNc1nnc(-c2ccccc2)c(-c2ccccc2)n1 (stereo not shown) [Compound B-54]
Ask: Of A and B , which one carries the higher reported relative TRPM8 activation? Kindly state the label of the option you pick.
Result: A

* * *

- targetDesc: human TRPM8 receptor (Homo sapiens, UniProt Q7Z2W7)
- Construct: expressed in transfected cells; host or cells: HEK293, stably transfected, tetracycline-inducible expression
- Sequence (Q7Z2W7 whole entry): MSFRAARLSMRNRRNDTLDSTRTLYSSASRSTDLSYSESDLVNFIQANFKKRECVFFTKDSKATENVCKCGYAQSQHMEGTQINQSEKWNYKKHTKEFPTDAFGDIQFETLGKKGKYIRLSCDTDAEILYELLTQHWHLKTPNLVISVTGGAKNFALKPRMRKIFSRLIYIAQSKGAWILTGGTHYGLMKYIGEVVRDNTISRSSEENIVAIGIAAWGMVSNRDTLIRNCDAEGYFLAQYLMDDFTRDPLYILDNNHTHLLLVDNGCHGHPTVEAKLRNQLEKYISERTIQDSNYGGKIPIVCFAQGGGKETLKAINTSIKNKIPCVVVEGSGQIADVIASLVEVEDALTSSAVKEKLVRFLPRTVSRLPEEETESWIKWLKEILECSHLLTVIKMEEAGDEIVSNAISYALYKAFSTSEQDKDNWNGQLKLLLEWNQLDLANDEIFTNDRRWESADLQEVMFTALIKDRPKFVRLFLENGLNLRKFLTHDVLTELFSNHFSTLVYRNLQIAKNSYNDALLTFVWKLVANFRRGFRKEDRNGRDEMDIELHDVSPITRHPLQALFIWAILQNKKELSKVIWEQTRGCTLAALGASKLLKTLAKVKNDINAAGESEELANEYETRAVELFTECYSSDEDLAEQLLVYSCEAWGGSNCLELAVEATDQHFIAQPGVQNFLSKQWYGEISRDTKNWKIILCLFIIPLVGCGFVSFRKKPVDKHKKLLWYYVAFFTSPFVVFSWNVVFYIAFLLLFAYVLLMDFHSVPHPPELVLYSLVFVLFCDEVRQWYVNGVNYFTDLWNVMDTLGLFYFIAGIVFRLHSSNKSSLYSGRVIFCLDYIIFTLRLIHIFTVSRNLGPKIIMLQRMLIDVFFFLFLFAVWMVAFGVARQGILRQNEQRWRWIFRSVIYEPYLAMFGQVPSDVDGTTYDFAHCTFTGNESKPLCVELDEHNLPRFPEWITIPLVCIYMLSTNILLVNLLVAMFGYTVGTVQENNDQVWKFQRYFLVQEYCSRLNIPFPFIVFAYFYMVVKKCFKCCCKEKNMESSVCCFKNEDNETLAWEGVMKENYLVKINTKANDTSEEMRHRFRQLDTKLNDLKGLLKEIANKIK
- runDescription: Assay on TRPM8 modulators: Ca2+-sensitive dye (Fluo-4) fluorescence in HEK293-TRPM8 test cells
- Type: cell-based
- appliedConditions: Table 8; HEK293-TRPM8 cells; read-out: TRPM8 EC50
quantityMeasured: EC50 (µM)

Here are 3 molecules together with their reported answers.
1) CCC(Sc1nc(-c2ccccc2)c(-c2ccccc2)o1)C(=O)NC (centres unmarked) :: 1.54
2) CNC(=O)CCc1nc(-c2ccccc2)c(-c2ccccc2)o1 :: 4.27
3) CNC(=O)CSc1nc(-c2ccccc2)c(-c2ccccc2)o1 :: 7.14

P: CCCNC(=O)C(C)Sc1nc(-c2ccccc2)c(-c2ccccc2)o1 (centres unmarked)
Q: CSCC(=O)N1CCCCC1c1nc(-c2ccc(C)cc2)co1 (centres unmarked)
Ask: When the recorded EC50 values are compared, which is smaller: that of P or that of Q ? Kindly state the label of the option you pick.
Result: Q
(Q: 0.11 µM, P: 5.09 µM)

* * *

- targetDesc: human TRPM8 receptor (Homo sapiens, UniProt Q7Z2W7)
- Construct: expressed in transfected cells; host or cells: HEK293, stably transfected, tetracycline-inducible expression
- runDescription: Assay on TRPM8 modulators: Ca2+-sensitive dye (Fluo-4) fluorescence in HEK293-TRPM8 test cells
- Type: cell-based
- Parameters: concentration or dose not given beside the values
- appliedConditions: HEK293 cells recombinantly expressing human TRPM8
quantityMeasured: relative TRPM8 activation (%)

Here are 9 compounds together with their reported answers.
1. CN(C)C(=O)CSc1nnc(-c2ccccc2)c(-c2ccccc2)n1 :: 56
2. CN(C)C(=O)CCc1nc(-c2ccccc2)c(-c2ccccc2)o1 :: 16
3. CN(C)CCOc1nnc(-c2ccccc2)c(-c2ccccc2)n1 :: 8
4. COCCSc1nnc(-c2ccccc2)c(-c2ccccc2)n1 :: 41
5. CC(C)CNC(=O)CSc1nc(-c2ccccc2)c(-c2ccccc2)o1 :: −1
6. CCC(=O)C(C)Sc1nnc(-c2ccccc2)c(-c2ccccc2)n1 (centres unmarked) :: 42
7. COc1ccc(-c2nc(SCC(=O)NC3CC3)oc2-c2ccc(OC)cc2)cc1 :: 1
8. CCC(Sc1nnc(-c2ccc(OC)c(OC)c2)c(-c2ccc(OC)c(OC)c2)n1)C(=O)NC1CCCC1 (centres unmarked) :: 1
9. CN(C)c1nc(-c2ccccc2)c(-c2ccccc2)o1 :: −3

1: COC(=O)NCCc1nc(-c2ccccc2)c(-c2ccccc2)o1
2: CNC(=O)CCSc1ncco1
Ask: When the recorded relative TRPM8 activation values are compared, which is smaller: that of 1 or that of 2 ? Kindly state the label of the option you pick.
Result: 1
(1: −1%, 2: 2%)
